Here's what we have: IC50 numbers for Vascular endothelial growth factor receptor 2 (Homo sapiens, UniProt P35968).
assay readout: IC50 (nM)

(A) CN(c1ccc(NC(=O)NCCN2CCOCC2)cc1)c1ccnc(Nc2ccc(CS(C)(=O)=O)cc2)n1
(B) CN(c1ccc(NC(=O)NCCc2ccccc2)cc1)c1ccnc(Nc2cccc(CS(C)(=O)=O)c2)n1
(C) CN1CCN(C(=O)c2ccc(NC(=O)Nc3ccc(N(C)c4ccnc(Nc5ccc(CS(C)(=O)=O)cc5)n4)cc3)cc2)CC1
Ask: # desc sort on IC50 across 3 compounds The response must list the labels following the requested ordering.
Reply: A, C, B
(A: 990 nM, C: 150 nM, B: 11 nM)

###

System: HUVEC
assay summary: Inhibitory concentration against human umbilical vein endothelial cells (HUVECs) induced by VEGF
Type: functional, cell-based
Form field: IC50 (one value per entry).
Report only the number, with the unit nM understood.

INSERT INTO assay_data (compound, assay_readout, result_unit, measured_value) VALUES
  ('CN(c1ccc(NC(=O)Nc2cc(C(F)(F)F)ccc2F)cc1)c1ccnc(Nc2ccc(S(N)(=O)=O)cc2)n1', 'IC50', 'nM', 8),
  ('CN(c1ccc(NS(=O)(=O)Cc2ccccc2)cc1)c1ccnc(Nc2cccc(CS(C)(=O)=O)c2)n1', 'IC50', 'nM', 350),
  ('CN(c1ccc(NC(=O)Nc2c(Cl)cccc2Cl)cc1)c1ccnc(Nc2cccc(CS(C)(=O)=O)c2)n1 [GW809897X]', 'IC50', 'nM', 29),
  ('CN(c1ccc(NC(=O)Cc2ccccc2)cc1)c1ccnc(Nc2cccc(CS(C)(=O)=O)c2)n1', 'IC50', 'nM', 49),
  ('CCNC(=O)Nc1ccc(N(C)c2ccnc(Nc3cccc(CS(C)(=O)=O)c3)n2)cc1', 'IC50', 'nM', 3),
  ('CN(c1ccc(NC(=O)Nc2ccccc2)cc1)c1ccnc(Nc2cccc(CS(C)(=O)=O)c2)n1', 'IC50', 'nM', 0.2),
  ('CN1CCN(C(=O)c2ccc(NC(=O)Nc3ccc(N(C)c4ccnc(Nc5ccc(CS(C)(=O)=O)cc5)n4)cc3)cc2)CC1', 'IC50', 'nM', 516),
  ('CC(=O)c1ccc(NC(=O)Nc2ccc(N(C)c3ccnc(Nc4cccc(CS(C)(=O)=O)c4)n3)cc2)cc1', 'IC50', 'nM', 2);

Pending compound:
Ask: Item `CN(c1ccc(NC(=O)N2CCN(CCCN3CCOCC3)CC2)cc1)c1ccnc(Nc2ccc(CS(C)(=O)=O)cc2)n1` has what recorded IC50?
Reply: 850

###

assayed target: UniProtKB P35968
assay readout: IC50 (nM)

(P) CN(c1ccc(NC(=O)N2CCN(CCCN3CCOCC3)CC2)cc1)c1ccnc(Nc2ccc(CS(C)(=O)=O)cc2)n1
(Q) CN(c1ccc(NC(=O)Nc2cc(C(F)(F)F)ccc2F)cc1)c1ccnc(Nc2cccc(S(N)(=O)=O)c2)n1
(R) CN(c1ccc(NC(=O)Nc2ccc(OC(F)(F)F)cc2)cc1)c1ccnc(Nc2cccc(S(N)(=O)=O)c2)n1 [GW806742X]
Ask: Give the ascending ranking of the items by reported IC50. The response must list the labels following the requested ordering.
Reply: Q, R, P

###

Test system: HUVEC
assay summary: Inhibitory concentration against human umbilical vein endothelial cells (HUVECs) induced by VEGF
Type: functional, cell-based
assay readout: pIC50
Entry type: numeric. Quantity: pIC50, the -log10 of concentration in molar units.

INSERT INTO assay_data (given_smiles, assay_readout, measured_value) VALUES
  ('CN(c1ccc(NC(=N)Nc2ccccc2)cc1)c1ccnc(Nc2cccc(CS(C)(=O)=O)c2)n1', 'pIC50', 6.22),
  ('CN(c1ccc(NC(=O)Nc2cc(C(F)(F)F)ccc2F)cc1)c1ccnc(Nc2ccc(CS(C)(=O)=O)cc2)n1', 'pIC50', 8.70),
  ('CN(c1ccc(NC(=O)Nc2ccccc2)cc1)c1ccnc(Nc2cccc(S(N)(=O)=O)c2)n1', 'pIC50', 8.70),
  ('CN(C)CCNC(=O)Nc1ccc(N(C)c2ccnc(Nc3cccc(CS(C)(=O)=O)c3)n2)cc1', 'pIC50', 6.28),
  ('CN(c1ccc(N/C(S)=N/c2ccccc2)cc1)c1ccnc(Nc2cccc(CS(C)(=O)=O)c2)n1', 'pIC50', 8.22),
  ('CN(c1ccc(NC(=O)NC2CCCC2)cc1)c1ccnc(Nc2cccc(CS(C)(=O)=O)c2)n1', 'pIC50', 9.00);

Pending compound:
Ask: Item `CCNC(=O)Nc1ccc(N(C)c2ccnc(Nc3ccc(CS(C)(=O)=O)cc3)n2)cc1` has what recorded pIC50?
Reply: 7.57
